Tested on: Wnt activity (Sp5-Luc reporter, human Sp5 promoter with eight TCF/LEF binding sites) in SW480 colon carcinoma cells
Test: Screening assay for Wnt activity: Sp5-Luc reporter gene assay in SW480 cells
Format: cell-based
Conditions: 10 μM, read-out: percent inhibition at 10 μM (given for EC50 of >10 μM)
Listed next: entries and their corresponding inhibition at 10 µM.
quantity: inhibition at 10 µM (%)

- Cc1cn(-c2cncc3[nH]c(-c4n[nH]c5ccc(-c6cncc(CN7CCCC7)c6)nc45)nc23)cn1: 3.5
- c1cncc(-c2cncc3[nH]c(-c4n[nH]c5ccc(-c6cncc(OC7CCCCC7)c6)nc45)nc23)c1: 24.3
- CC(C)C(=O)Nc1cncc(-c2ccc3[nH]nc(-c4nc5c(N6CCN(C)CC6)cncc5[nH]4)c3n2)c1: 6.2
- Cc1ncc(-c2ccc3[nH]nc(-c4nc5c(-c6cccc(F)c6)cncc5[nH]4)c3n2)s1: 38
- CC(C)C(=O)Nc1cncc(-c2ccc3[nH]nc(-c4nc5c(-c6ccccc6F)cncc5[nH]4)c3n2)c1: 1

---

System: Wnt activity (Sp5-Luc reporter, human Sp5 promoter with eight TCF/LEF binding sites) in SW480 colon carcinoma cells
Assay: Screening assay for Wnt activity: Sp5-Luc reporter gene assay in SW480 cells
Type: cell-based
Conditions: 10 μM, read-out: percent inhibition at 10 μM (given for EC50 of >10 μM)
quantity: inhibition at 10 µM (%)

- O=C(Nc1cncc(-c2ccc3[nH]nc(-c4nc5c(-c6cccc(F)c6)cncc5[nH]4)c3n2)c1)C1CC1 [Compound 20]: 7
- CN(C)Cc1cncc(-c2ccc3[nH]nc(-c4nc5c(-c6cccs6)cncc5[nH]4)c3n2)c1 [Compound 321]: 19.2
- c1cc2c(cc1-c1cncc3[nH]c(-c4n[nH]c5ccc(C6CCNCC6)nc45)nc13)OCO2 [Compound 1063]: 10.5
- Fc1cccc(-c2cncc3[nH]c(-c4n[nH]c5ccc(-c6cncc(OC7CCNCC7)c6)nc45)nc23)c1 [Compound 484]: 24
- COc1cccc(-c2cncc3[nH]c(-c4n[nH]c5ccc(-c6cncc(NC(=O)Cc7ccccc7)c6)nc45)nc23)c1 [Compound 955]: 21.5
- Cc1ccc(-c2cncc3[nH]c(-c4n[nH]c5ccc(-c6cncc(NC(=O)C(C)C)c6)nc45)nc23)s1 [Compound 373]: 16.1
- CCCC(=O)Nc1cncc(-c2ccc3[nH]nc(-c4nc5c(-c6cc(F)cc(CNS(C)(=O)=O)c6)cncc5[nH]4)c3n2)c1 [Compound 465]: 28
- Cn1cc(-c2ccc3[nH]nc(-c4nc5c(N6CCCCC6)cncc5[nH]4)c3n2)c(CO)n1 [Compound 1089]: 24.2
- CCCCC(=O)Nc1cncc(-c2ccc3[nH]nc(-c4nc5c(-c6cc(F)cc(NCCN(C)C)c6)cncc5[nH]4)c3n2)c1 [Compound 439]: 3.1
- Fc1cccc(-c2cncc3[nH]c(-c4n[nH]c5ccc(-c6ccncc6)nc45)nc23)c1 [Compound 18]: 14
- NC1CN(c2cncc(-c3ccc4[nH]nc(-c5nc6c(-c7ccc(Cl)s7)cncc6[nH]5)c4n3)n2)C1 [Compound 1023]: 24.3
- Oc1cncc(-c2ccc3[nH]nc(-c4nc5c(-c6cccc(F)c6)cncc5[nH]4)c3n2)c1 [Compound 489]: 27
- Cn1cc(-c2ccc3[nH]nc(-c4nc5c(-c6cc(F)cc(CNS(C)(=O)=O)c6)cncc5[nH]4)c3n2)cn1 [Compound 720]: 16.4
- O=C(Nc1cncc(-c2ccc3[nH]nc(-c4nc5c(-c6ccc(F)cc6)cncc5[nH]4)c3n2)c1)C1CCC1 [Compound 49]: 44
- O=C(Nc1cncc(-c2ccc3[nH]nc(-c4nc5c(-c6ccccn6)cncc5[nH]4)c3n2)c1)c1ccccc1 [Compound 151]: 23.9
- Oc1cncc(-c2ccc3[nH]nc(-c4nc5c(-c6cccnc6)cncc5[nH]4)c3n2)c1 [Compound 537]: 9.9
- c1ncc(-c2ccc3[nH]nc(-c4nc5c(N6CCCCC6)cncc5[nH]4)c3n2)cc1OCCN1CCCC1 [Compound 582]: 6.6
- CN1CCN(c2cncc3[nH]c(-c4n[nH]c5ccc(-c6cncc(N)c6)nc45)nc23)CC1 [Compound 227]: 16.3
- CCCC(=O)Nc1cncc(-c2ccc3[nH]nc(-c4nc5c(-c6ccncc6)cncc5[nH]4)c3n2)c1 [Compound 129]: 0
- CN(C)Cc1cncc(-c2ccc3[nH]nc(-c4nc5c(N6CCCCC6)cncc5[nH]4)c3n2)c1 [Compound 181]: 33.1

---

Listed next: entries and their corresponding inhibition at 10 µM.
Test system: Wnt activity (Sp5-Luc reporter, human Sp5 promoter with eight TCF/LEF binding sites) in SW480 colon carcinoma cells
Assay: Screening assay for Wnt activity: Sp5-Luc reporter gene assay in SW480 cells
Assay type: cell-based
Conditions: 10 μM, read-out: percent inhibition at 10 μM (given for EC50 of >10 μM)
quantity: inhibition at 10 µM (%)

* CC(C)C(=O)Nc1cncc(-c2ccc3[nH]nc(-c4nc5c(-c6cccnc6)cncc5[nH]4)c3n2)c1 | 18.3
* O=C(Nc1cncc(-c2ccc3[nH]nc(-c4nc5c(-c6cccs6)cncc5[nH]4)c3n2)c1)C1CC1 | 3.7
* Fc1cccc(-c2cncc3[nH]c(-c4n[nH]c5ccc(-c6cnccn6)nc45)nc23)c1 | 13

---

Listed next: entries and their corresponding inhibition at 10 µM.
System: SW480 colon cancer cells
Test: Cell viability assay (CellTiter-Blue) in SW480 colon cancer cells
Type: cell-based
Details: Homo sapiens, 96 h, 10 μM, four days, CellTiter-Blue, read-out: percent inhibition at 10 μM (given for EC50 of >10 μM)
quantity: inhibition at 10 µM (%)

• CCNCc1cncc(-c2ccc3[nH]nc(-c4nc5c(-c6ccccn6)cncc5[nH]4)c3n2)c1 [Compound 146] = 26.9
• Nc1cncc(-c2ccc3[nH]nc(-c4nc5c(-c6ccccc6F)cncc5[nH]4)c3n2)c1 [Compound 59] = 0
• c1ccc(COc2cncc(-c3ccc4[nH]nc(-c5nc6c(-c7ccncc7)cncc6[nH]5)c4n3)c2)cc1 [Compound 554] = 0
• CC(C)CC(=O)Nc1cncc(-c2ccc3[nH]nc(-c4nc5c(-c6cccc(F)c6)cncc5[nH]4)c3n2)c1 [Compound 2] = 0
• CC(C)CC(=O)Nc1cncc(-c2ccc3[nH]nc(-c4nc5c(-c6ccc(Cl)s6)cncc5[nH]4)c3n2)c1 [Compound 992] = 25.1
• Fc1cccc(-c2cncc3[nH]c(-c4n[nH]c5ccc(C6CCNCC6)nc45)nc23)c1 [Compound 477] = 1.8
• Cn1cc(-c2ccc3[nH]nc(-c4nc5c(-c6ccc(F)cc6)cncc5[nH]4)c3n2)c(CO)n1 [Compound 1084] = 5.7

---

Listed next: entries and their corresponding inhibition at 10 µM.
Tested on: SW480 colon cancer cells
Test: Cell viability assay (CellTiter-Blue) in SW480 colon cancer cells
Assay type: cell-based
Conditions: Homo sapiens, 96 h, 10 μM, four days, CellTiter-Blue, read-out: percent inhibition at 10 μM (given for EC50 of >10 μM)
quantity: inhibition at 10 µM (%)

- c1cncc(-c2ccc3[nH]nc(-c4nc5c(-c6cccnc6)cncc5[nH]4)c3n2)c1: 7.1
- COc1cccc(-c2cncc3[nH]c(-c4n[nH]c5ccc(-c6cncc(O)c6)nc45)nc23)c1: 7.1
- COc1cccc(-c2cncc3[nH]c(-c4n[nH]c5ccc(-c6cccnc6)nc45)nc23)c1: 6.9
- Cc1cn(-c2cncc3[nH]c(-c4n[nH]c5ccc(-c6cncc(OCCN(C)C)c6)nc45)nc23)cn1: 7.1
- Cn1cc(-c2ccc3[nH]nc(-c4nc5c(-c6cccc(F)c6)cncc5[nH]4)c3n2)cn1: 1.7
- Cc1cnc(-c2ccc3[nH]nc(-c4nc5c(-c6cccc(F)c6)cncc5[nH]4)c3n2)s1: 11.5
- NC1CN(c2cncc(-c3ccc4[nH]nc(-c5nc6c(-c7ccc(Cl)s7)cncc6[nH]5)c4n3)n2)C1: 7.4
- CCC(=O)Nc1cncc(-c2ccc3[nH]nc(-c4nc5c(N6CCCCC6)cncc5[nH]4)c3n2)c1: 2.2
